experiment: protein stability index of a GFP-peptide fusion (GPS, HEK-293T) (PSI 1-6); higher = more stable; details: treatment: DMSO; c terminus: a fixed tail appended;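 further: 24-mer peptide tiles fused after GFP, lentivirally expressed, FACS-sorted into six equal bins by GFP/DsRed ratio, decoded by Illumina sequencing, PSI is the read-weighted mean bin number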
propertyMeasured: protein stability index
The answer should be written as a number, with no unit following it.

Illustrative cases are given below, each with its answer.
sequenceChain	protein stability index
WYDMFRDAAAILLDEQNKRPCRKF [ZMAT5]	2.35
VNVDNLLAAAVVQEHSNSVGGQDT [C18orf25]	5.05
EHPFLVNLWYSFQDEEDMFMVVDL [STK32A]	2.9
TPMATKRSGAGVALLNDHIYVVGG [KLHL12]	2.91
LSHSPQEDWVLLGMANGQQWLQST [TLE6]	2.57

Would you mind telling me what protein stability index value was observed for MGQHISLAPIHKLEEALYEYQPLQ [MNAT1] ?
3

Next sequence up: IFGASSVDFSLSGRLLFAGYNDYT [GNB5]
2.6

Note, next up: LREAEIARIRDEEAQRASFLQNAV [LRRC45]
4.37

Would you mind doing DVTSGDHGDYFRLLLPGIYTVSAT [CPN1] as well?
2.29

Can you handle DLCLLYPPFMIALACLHVACVVQQ [CCNC] next?
3.11

Similarly, LGCQGAQFVSSVPRCDLVDLGEGK [FAM189A2] ?
4.31

Thanks! And EDQHRLYQQIKAGAYDFPSPEWDT [CAMK2D] ?
4.36

Same again, this time with NNYRLGGNPSTNSRVTASSGITIP [SMARCE1]
3.64

Source listed as the supplement of paper PMC10567573.
